Several publications report Ki on Muscarinic acetylcholine receptor M5 (Homo sapiens, UniProt P08912); those values are gathered here.
Molecular target: Muscarinic acetylcholine receptor M5 (Homo sapiens, UniProt P08912)
Sequence (P08912 whole entry): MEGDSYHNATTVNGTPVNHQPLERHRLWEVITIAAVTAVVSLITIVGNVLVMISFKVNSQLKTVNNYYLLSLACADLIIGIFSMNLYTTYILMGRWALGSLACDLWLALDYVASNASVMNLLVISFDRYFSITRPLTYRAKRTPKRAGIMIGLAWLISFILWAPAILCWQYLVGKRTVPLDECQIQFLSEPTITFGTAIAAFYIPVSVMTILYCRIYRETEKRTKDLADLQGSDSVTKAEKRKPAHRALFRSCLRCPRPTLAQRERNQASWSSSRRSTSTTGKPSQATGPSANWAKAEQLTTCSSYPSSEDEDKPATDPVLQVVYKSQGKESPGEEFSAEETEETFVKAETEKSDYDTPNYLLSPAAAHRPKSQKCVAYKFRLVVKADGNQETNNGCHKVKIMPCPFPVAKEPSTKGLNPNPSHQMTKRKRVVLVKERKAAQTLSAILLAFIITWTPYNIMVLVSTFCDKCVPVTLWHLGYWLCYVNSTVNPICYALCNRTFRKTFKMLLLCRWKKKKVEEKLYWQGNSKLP
MEASURE_NAME: Ki (µM)

// below: answered compounds
>>> observed_measurement("O=C(NCCC1CCNCC1)[C@H]1CCCN1C(=O)[C@@H]1C[C@@H](O)CN1C(=O)CC(c1ccc(Cl)cc1)(c1ccc(Cl)cc1)c1ccc(Cl)cc1")
0.95
>>> observed_measurement("Cc1ccc2c(c1)CC(CCN(C)C)=C2C(C)c1ccccn1 (stereo unspecified)")
1.45
>>> observed_measurement("O=C1CCc2ccccc2N1CCCN1CCC(CCCCCO)CC1")
4.57
>>> observed_measurement("Cc1nn(C)c(C)c1S(=O)(=O)N1CCC2(CC1)OCCS2")
2.7

a: CCN1CCC(CNC(=O)[C@H]2CCCN2C(=O)[C@@H]2C[C@@H](O)CN2C(=O)CC(c2ccc(F)cc2)(c2ccc(F)cc2)c2ccc(F)cc2)CC1
b: CC(=O)N[C@@H](CCCCN)C(=O)N[C@@H](CCCNC(=N)N)C(=O)NCCCCC1CCN(CC(=O)N2c3ccccc3NC(=O)c3ccccc32)CC1
Input: Quick check, higher Ki between a and b ? Pick one and reply with its label.
Output: a
(a: 2.8 µM, b: 0.316 µM)
